Cited source for all entries: PubChem BioAssay

assay overview: blockers of RIG-like receptor reporter activation – cell-based, Sendai virus stimulus, luciferase, 10K MLSCN set, TLR/RLR signaling modifier project, primary screen (AID 602276);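 note: firefly luciferase from ISG56 promoter only with Renilla not read in this screen; 0% = Sendai virus plus DMSO and 100% = medium plus DMSO without virus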
condition details: HEK293 RL24 IRF3 luciferase reporter, at 10 µM, stronger effect = higher value
readout name: inhibition (%)
Please respond with the number in % and leave the unit unwritten.

These solved cases illustrate the format of a correct answer.
>>> measured_result("Cc1ccc(S(=O)(=O)N2CCN(C(=O)c3cc(=O)[nH]c4ccccc34)CC2)c(C)c1")
17.3
>>> measured_result("COc1ccc(-c2ccc(CCC(=O)O)n2NC(=O)c2cccs2)cc1")
2.14
>>> measured_result("Cc1nc2ncnn2c(N2CCC(C(=O)NCC3CCCO3)CC2)c1Cc1ccccc1 (configuration not stated)")
8.8
>>> measured_result("COc1ccc(-c2cc(C(=O)NCc3ccc(Cl)cc3)no2)cc1OC")
14.3
>>> measured_result("O=c1c2cnn(-c3ccccc3)c2ncn1/N=C/c1ccncc1")
11.6

Ask: # lookup: inhibition of CC(OC(=O)CNC(=O)C12CC3CC(CC(C3)C1)C2)C(=O)Nc1ccc(N2CCOCC2)cc1 (configuration not stated)
Result: -2.61

Ask: # lookup: inhibition of Cc1[nH]c2c(C)cccc2c(=O)c1Br
Result: 14.8

Ask: # lookup: inhibition of O=C(CSc1nnc(-c2ccco2)n1CC1CCCO1)NC1CCCC1 (configuration not stated)
Result: 7.82

====

assay overview: reduction of polyQ htt aggregates in cells – imaging, exon1htt(103Q)mCFP cells, high-content imaging, primary screen (AID 483);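 note: compound exposure lasted 3 days before fixation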
condition details: exon1htt(103Q)mCFP cell line, aggregate imaging, at 2 µM; stronger effect = higher value
Recorded inhibition of aggregation for the following compounds
Please respond with the number in % and leave the unit unwritten.

These solved cases illustrate the format of a correct answer.
>>> measured_result("COc1ccc(CC(=O)NCc2cccs2)cc1")
-32.4
>>> measured_result("Clc1ccc(Cl)c(-c2nn3c(Cn4cnc5ccccc54)nnc3s2)c1")
-6.5

Ask: # lookup: inhibition of aggregation of Cc1nnc(SCCn2c(N3CCC(Cc4ccccc4)CC3)nc3c2c(=O)[nH]c(=O)n3C)s1
Result: -91.9

Ask: # lookup: inhibition of aggregation of CC1CCN(c2oc(-c3cccc4ccccc34)nc2C#N)CC1
Result: 1.2

Ask: # lookup: inhibition of aggregation of CC1(C)CC(=O)C(C=Nc2ccncc2)=C(O)C1
Result: 3.3

====

Recorded nuclei count for the following molecules
assay overview: reduction of polyQ htt aggregates in cells – imaging, exon1htt(103Q)mCFP cells, high-content imaging, primary screen (AID 483);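 note: compound exposure lasted 3 days before fixation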;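 for nuclei count: percent of the per-plate median nuclei count of sample wells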
condition details: exon1htt(103Q)mCFP cell line, aggregate imaging, at 2 µM; measured here: cell count, toxicity
Please respond with the number in % and leave the unit unwritten.

These solved cases illustrate the format of a correct answer.
>>> measured_result("CCn1c(SCc2nc(-c3cccs3)no2)nnc1-c1c[nH]c2ccccc12")
82.9
>>> measured_result("CCn1c(SCC(=O)Nc2nc(C)cs2)nnc1-c1ccco1")
114
>>> measured_result("CCCNC(=O)C1CC(=O)N(c2ccc(OCC(=O)Nc3cc(C)cc(C)c3)cc2)C1 (configuration not stated)")
104
>>> measured_result("O=C(Nc1ccc2c(c1)OCO2)c1nn(-c2ccccc2)c(=O)c2ccccc12")
93.9
>>> measured_result("O=C(CSc1nc2ccccc2c(=O)n1CCC(=O)N1CCCCC1)NCc1ccccc1")
103
>>> measured_result("O=C1CSC(c2cn(-c3ccccc3)nc2-c2ccccc2)N1Cc1ccco1 (configuration not stated)")
108

Ask: # lookup: nuclei count of CC(=O)C1=C(O)C(=O)N(Cc2ccco2)C1c1ccc(F)cc1 (configuration not stated)
Result: 92.3

Ask: # lookup: nuclei count of O=C(Nc1ccccc1)N(Cc1cccnc1)Cc1ccco1
Result: 97.2

Ask: # lookup: nuclei count of O=C(Nc1cccc2ncccc12)c1ccc2c(c1)OCCO2
Result: 101

Ask: # lookup: nuclei count of O=C(NCC1CCCO1)c1cccc(N2C(=O)C3C4C=CC(C4)C3C2=O)c1 (configuration not stated)
Result: 101

Ask: # lookup: nuclei count of COc1ccc(Cc2nc(-c3ccc(Br)cc3)no2)cc1
Result: 105

Ask: # lookup: nuclei count of COc1cccc(OCc2nnc(SCC(=O)OCc3ccccc3)o2)c1
Result: 99.2

Ask: # lookup: nuclei count of Cc1nc(SCC(=O)Nc2ccccc2C(F)(F)F)c2c(=O)n(C)c(=O)n(C)c2n1
Result: 120

Ask: # lookup: nuclei count of Cc1nc(-c2ccccc2)sc1C(N)=O
Result: 104

Ask: # lookup: nuclei count of CCOc1cc(NC(=O)c2ccccn2)c(OCC)cc1NC(=O)CC(C)C
Result: 115

Ask: # lookup: nuclei count of Cn1c(SCc2cccc3ccccc23)nnc1-c1ccco1
Result: 101

Ask: # lookup: nuclei count of O=C(Nc1ccc(N2CCOCC2)cc1)Nc1ccc2nc(-c3ccco3)c(-c3ccco3)nc2c1
Result: 98.1

====

target entity: Alpha-2C adrenergic receptor (Homo sapiens)
assay overview: compounds altering alpha2C-coupled GIRK flux – cell-based, HEK293 alpha2C/GIRK1/2, thallium flux, primary screen (AID 624);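 note: slope of fluorescence ratio to pre-addition baseline per second over 15 to 24 s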
condition details: thallium flux BTC fluorescence, at 10 µM, actives lie on both sides
Recorded slope for the following molecules
Give the figure only, with no unit attached.

These solved cases illustrate the format of a correct answer.
>>> measured_result("COC(=O)C1=C(C)Nc2ncnn2C1c1ccco1 (stereo unspecified)")
0.00405
>>> measured_result("CN(C(=O)C1CCOC1)c1nnc(-c2cccnc2)s1 (stereo unspecified)")
0.0059

Ask: # lookup: slope of NC(=O)C1(N2CCCCC2)CCN(C(=O)Nc2ccccc2C(F)(F)F)CC1
Result: 0.00567

Ask: # lookup: slope of Cc1cc(C)n(C(=O)C23CC4CC(CC(C4)C2)C3)n1
Result: 0.00607

Ask: # lookup: slope of COc1ccccc1CC(=O)NCC1CCCO1 (stereo unspecified)
Result: 0.00554

Ask: # lookup: slope of COc1cccc2c(=O)cc(C)n(CC(=O)Nc3ccc(C)c(C)c3)c12
Result: 0.00483

Ask: # lookup: slope of CC12CN3CCN(CC(C3)C1(O)CN1CCCCC1)C2 (stereo unspecified)
Result: 0.00521

Ask: # lookup: slope of CN(C)S(=O)(=O)N1CCN(c2cccc(Cl)c2)CC1
Result: 0.00363

Ask: # lookup: slope of O=C(Nc1ccccc1C(=O)O)c1cccc(NC(=O)c2ccc(Br)o2)c1
Result: 0.00477

Ask: # lookup: slope of Cc1cccc(NC(=O)CC2NC3CCCCC3NC2=O)c1 (stereo unspecified)
Result: 0.00297

Ask: # lookup: slope of S=C(NCC1CCCO1)n1nnc2ccccc21 (stereo unspecified)
Result: 0.00794

Ask: # lookup: slope of CS(=O)(=O)N(CC(=O)N1CCCCCC1)c1ccc(Br)cc1
Result: 0.00619

Ask: # lookup: slope of O=C(NCCCNC1CCCCC1)c1ccc(/C=N/O)nc1
Result: 0.00681

Ask: # lookup: slope of Cc1ccc(S(=O)(=O)N2CCN(C(=O)CSc3nc4ccccc4c(=O)[nH]3)CC2)c(C)c1
Result: 0.00493

Ask: # lookup: slope of CCOC(=O)c1sc(NC(=O)c2c(C)nn(Cc3ccccc3)c2C)cc1C
Result: 0.00542

Ask: # lookup: slope of O=C(Cc1nc2ccccc2s1)c1ccc(O)cc1O
Result: 0.00457

Ask: # lookup: slope of CN1CCN(c2nc(-c3ccncc3)nc3ccccc23)CC1
Result: 0.00562

Ask: # lookup: slope of CCc1ccccc1N1C(=O)C2CC(C)=C(C)CC2C1=O (stereo unspecified)
Result: 0.00511

Ask: # lookup: slope of O=C(NCc1ccc2c(c1)OCO2)c1ccc(NS(=O)(=O)c2ccc3c(c2)OCCO3)cc1
Result: 0.00624

====

Recorded nuclei count for the following molecules
assay overview: reduction of polyQ htt aggregates in cells – imaging, exon1htt(103Q)mCFP cells, high-content imaging, primary screen (AID 483);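 note: compound exposure lasted 3 days before fixation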;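 for nuclei count: percent of the per-plate median nuclei count of sample wells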
condition details: exon1htt(103Q)mCFP cell line, aggregate imaging, at 2 µM; measured here: cell count, toxicity
Please respond with the number in % and leave the unit unwritten.

>>> measured_result("CN1C(=O)CC(C(=O)Nc2ccc(F)cc2)SC1=Nc1ccc2c(c1)OCO2 (stereo not given)")
117
>>> measured_result("Cc1nc2ccccc2nc1OCC(=O)Nc1cc(C(F)(F)F)ccc1N1CCOCC1")
85.4
>>> measured_result("O=C(C1CCCN1S(=O)(=O)c1cccc2cccnc12)N1CCn2c1nc1ccccc12 (stereo not given)")
117
>>> measured_result("COc1ccccc1C(=O)Nc1ccccc1C(=O)N1CCCC1")
108
>>> measured_result("COC(=O)C1=CN(C(C)C)C=C(C(=O)OC)C1c1cc2c(cc1Br)OCO2")
104

Ask: # lookup: nuclei count of O=C(NCc1cccnc1)c1cn(CCc2ccccc2)nn1
Result: 98.8

Ask: # lookup: nuclei count of CCOC(=O)c1c(C)oc2ccc(OCC(N)=O)cc12
Result: 36.5

Ask: # lookup: nuclei count of Cc1noc(NS(=O)(=O)c2ccc(N3C(=O)c4ccccc4C3=O)cc2)c1C
Result: 104

Ask: # lookup: nuclei count of Cc1ccc(C)c(N2CCN(Cc3nnnn3C3CCCCC3)CC2)c1
Result: 123

Ask: # lookup: nuclei count of O=C(NCc1nc2ccccc2[nH]1)c1ccco1
Result: 113
